biological target: wild-type human cardiac sodium channel, hNav1.5 (Homo sapiens); test: Late INa screening assay (late sodium current, PatchXpress whole cell patch clamp); assay type: cell-based; conditions: compound at 10 μM; read-out: Late INa % blk
Sequence (Q14524 whole entry): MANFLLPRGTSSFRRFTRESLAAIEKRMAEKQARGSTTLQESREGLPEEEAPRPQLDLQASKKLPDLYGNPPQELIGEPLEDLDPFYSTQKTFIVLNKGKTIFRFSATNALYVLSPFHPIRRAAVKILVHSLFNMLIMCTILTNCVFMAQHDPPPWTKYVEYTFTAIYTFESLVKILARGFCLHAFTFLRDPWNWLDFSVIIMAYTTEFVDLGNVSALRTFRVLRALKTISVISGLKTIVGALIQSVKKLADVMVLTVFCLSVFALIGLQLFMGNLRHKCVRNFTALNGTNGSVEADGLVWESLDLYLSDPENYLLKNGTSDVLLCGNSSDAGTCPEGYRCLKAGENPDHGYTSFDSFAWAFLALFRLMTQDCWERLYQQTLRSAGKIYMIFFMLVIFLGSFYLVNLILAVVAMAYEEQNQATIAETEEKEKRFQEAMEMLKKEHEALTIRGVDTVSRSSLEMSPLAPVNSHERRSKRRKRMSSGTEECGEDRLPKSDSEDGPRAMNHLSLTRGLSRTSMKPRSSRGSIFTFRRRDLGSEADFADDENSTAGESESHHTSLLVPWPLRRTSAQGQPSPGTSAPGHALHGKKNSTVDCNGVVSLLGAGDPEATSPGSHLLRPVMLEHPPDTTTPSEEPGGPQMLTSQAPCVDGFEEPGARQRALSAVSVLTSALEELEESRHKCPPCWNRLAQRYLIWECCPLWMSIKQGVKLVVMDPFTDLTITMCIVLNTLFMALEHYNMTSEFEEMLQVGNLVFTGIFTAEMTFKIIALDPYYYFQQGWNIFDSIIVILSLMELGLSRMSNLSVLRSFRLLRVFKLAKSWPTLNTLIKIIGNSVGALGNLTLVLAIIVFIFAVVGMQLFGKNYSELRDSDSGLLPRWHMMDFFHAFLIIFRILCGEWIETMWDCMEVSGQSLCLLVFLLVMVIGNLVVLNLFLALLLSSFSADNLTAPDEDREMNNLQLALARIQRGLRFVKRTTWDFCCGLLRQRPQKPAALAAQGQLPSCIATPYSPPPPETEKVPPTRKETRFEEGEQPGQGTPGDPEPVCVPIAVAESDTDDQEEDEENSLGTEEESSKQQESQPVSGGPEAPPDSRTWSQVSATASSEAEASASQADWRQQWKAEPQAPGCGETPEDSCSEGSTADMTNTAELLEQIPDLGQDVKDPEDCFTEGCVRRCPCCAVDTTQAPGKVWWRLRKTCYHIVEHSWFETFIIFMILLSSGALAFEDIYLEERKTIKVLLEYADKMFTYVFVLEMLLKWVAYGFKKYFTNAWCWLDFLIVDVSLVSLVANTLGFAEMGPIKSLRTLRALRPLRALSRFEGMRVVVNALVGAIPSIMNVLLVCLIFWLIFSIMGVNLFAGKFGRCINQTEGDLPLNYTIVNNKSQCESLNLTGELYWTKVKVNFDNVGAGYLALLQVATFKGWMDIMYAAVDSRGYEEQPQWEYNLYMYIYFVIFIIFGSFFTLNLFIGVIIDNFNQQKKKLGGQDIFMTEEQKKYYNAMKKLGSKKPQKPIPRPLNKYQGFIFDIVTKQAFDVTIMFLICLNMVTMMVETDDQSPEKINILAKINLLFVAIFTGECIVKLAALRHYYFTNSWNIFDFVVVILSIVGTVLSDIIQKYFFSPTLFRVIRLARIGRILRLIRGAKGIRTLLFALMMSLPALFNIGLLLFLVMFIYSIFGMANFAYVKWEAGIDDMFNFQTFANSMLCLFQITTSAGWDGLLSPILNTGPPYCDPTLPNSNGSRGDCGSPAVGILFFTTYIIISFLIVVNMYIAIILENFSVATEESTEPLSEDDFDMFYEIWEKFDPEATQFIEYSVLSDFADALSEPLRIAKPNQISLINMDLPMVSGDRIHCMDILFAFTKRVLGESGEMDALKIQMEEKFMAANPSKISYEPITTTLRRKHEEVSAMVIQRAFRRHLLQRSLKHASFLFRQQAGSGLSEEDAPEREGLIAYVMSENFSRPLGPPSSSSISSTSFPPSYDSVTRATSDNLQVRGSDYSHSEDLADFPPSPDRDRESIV
Quick reference for inhibition at 10 µM among some molecules
REPORTED PROPERTY: inhibition at 10 µM (%)

>>> measured_result("CCOC(=O)C1=C(C)N(C)c2nnnn2C1c1cccc2ccccc12 (centres unmarked) [PT-015]")
27.2
>>> measured_result("CCOC(=O)C1=C(C(C)=O)C(c2cccc3ccccc23)n2nnnc2N1 (centres unmarked) [PT-465]")
10.5
>>> measured_result("CCOC(=O)C1=C(C)Nc2nnnn2C1c1cccc(OCc2ccc(C(=O)OCC)cc2)c1 (centres unmarked) [PT-497]")
59
>>> measured_result("COC(=O)C1=C(C)Nc2[nH]ncc2C1c1nc(C)cs1 (centres unmarked) [PT-515]")
10.8
>>> measured_result("CCOC(=O)[C@@H]1CCCN(c2cc(OC)ccc2C2C(C(=O)OCc3ccccc3)=C(C)Nc3nnnn32)C1 (some centres unmarked) [PT-373]")
64.9
>>> measured_result("CCS(=O)(=O)N1CCN(c2cccc(OC)c2C2C(C(=O)OCc3ccccc3)=C(C)Nc3nnnn32)CC1 (centres unmarked) [PT-378]")
42
>>> measured_result("CC1=C(C(=O)OCc2ccccc2)C(c2occc2-c2ccc(F)cc2)n2nnnc2N1 (centres unmarked) [PT-396]")
80.7
>>> measured_result("CC1=C(C(=O)OCc2ccccc2)C(c2ccccc2-c2ccc(C(=O)O)cc2)n2nnnc2N1 (centres unmarked) [PT-254]")
10.7

* * *

target: wild-type human cardiac sodium channel, hNav1.5 (Homo sapiens); test: Late INa screening assay (late sodium current, PatchXpress whole cell patch clamp); format: cell-based; settings: read-out: Late INa % blk
REPORTED PROPERTY: inhibition at 10 µM (%)

>>> measured_result("CC1=C(C(=O)OC2CCCc3ccccc32)C(c2cccc3ccccc23)n2nnnc2N1 (centres unmarked)")
28.8
>>> measured_result("O=C1OCC2=C1C(c1cccc3ccccc13)c1c(-c3ccco3)n[nH]c1N2 (centres unmarked)")
31.9
>>> measured_result("CC1=C(C(=O)OCc2ccccc2)C(c2cccc(Oc3ccccc3)c2)n2nnnc2N1 (centres unmarked)")
72.6
>>> measured_result("CCOC(=O)C1=C(C)Nc2nnnn2C1c1sc2ccccc2c1C (centres unmarked)")
36.5
>>> measured_result("CCOC(=O)C1=C(C)Nc2nnnn2C1c1cccc2ccccc12 (centres unmarked)")
52.3
>>> measured_result("CCOC(=O)C1=C(C(C)C)Nc2nnnn2C1c1cccc2ccccc12 (centres unmarked)")
45.4
>>> measured_result("c1ccc2c(c1)CCC1=C2C(c2cccc3ccccc23)n2nnnc2N1 (centres unmarked)")
50.9
>>> measured_result("CCOC(=O)C1=C(C)Nc2c(C#N)cnn2C1c1cccc2ccccc12 (centres unmarked)")
48.4

* * *

target: wild-type human cardiac sodium channel, hNav1.5 (Homo sapiens); assay: Late INa screening assay (late sodium current, PatchXpress whole cell patch clamp); assay type: cell-based; settings: compound at 10 μM; read-out: Late INa % blk
REPORTED PROPERTY: inhibition at 10 µM (%)

>>> measured_result("CC1=C(C(=O)OCc2ccccc2)C(c2ccccc2Br)C2=C(CCCC2=O)N1 (stereo not drawn)")
54.9
>>> measured_result("CC1=C(C(=O)OCc2ccccc2)C(c2cccs2)n2nnnc2N1 (stereo not drawn)")
70.8
>>> measured_result("C=CCOC(=O)C1=C(C)Nc2nnnn2C1c1cccc2ccccc12 (stereo not drawn)")
55.7
>>> measured_result("CCOC(=O)C1=C(CC)NC(CC)=C(C(=O)OCC)C1c1ccc(Br)s1")
91.7
>>> measured_result("CCOC(=O)C1=C(C)Nc2[nH]ncc2C1c1ccc(OC)cc1OCc1ccccc1 (stereo not drawn)")
62.2
>>> measured_result("CC1=C(C(=O)OCc2ccccc2)[C@@H](c2ccccc2-c2ccc(C)o2)n2nnnc2N1")
71.4
>>> measured_result("CC1=C(C(=O)O[C@@H](C)c2ccccc2)C(c2sc3ccccc3c2C)n2nccc2N1 (stereo partly drawn)")
68.7
>>> measured_result("COc1cc([N+](=O)[O-])ccc1C1C(C(=O)OCc2ccccc2)=C(C)Nc2ccnn21 (stereo not drawn)")
45.2
>>> measured_result("CC1=C(C(=O)OCc2ccccc2)C(c2ccc(-c3nnn[nH]3)cc2)n2nnnc2N1 (stereo not drawn)")
9.7
